- test.target: biotin-labeled SARS-COV-2 RBD domain (SARS-CoV-2, UniProt P0DTC2 319-541)
- protocol.notes: SPR, Biacore T200, biotin-RBD on SA chip, antibody as analyte
result.type: Kd

Consider the reported Kd for these binders:
binder | assay.value
ABU-379 (antibody, V domains shown) VH: EVQLVESGGGLVQPGGSLRLSCAASGFIVSSNYMSWVRQAPGKGLEWVSVIYSGGSTYYADSVKGRFTISRDNSKNTLYLRMNSLRAEDTAVYYCARAPYCSSRSCETWGQGTLVTVSS VL: DIQMTQSPSSLSASVGDRVTITCQASQDIRNYLNWYQQKPGKAPNLLIYDASNLETGVPSRFSGSGSGTDFTFTINSLQPEDIATYYCQQYDNLPITFGQGTRLEIK | < 10 nM
ABU-337 (antibody, V domains shown) VH: QVQLVESGGGVVQPGRSLRLSCAASGFTFSTSAMHWVRQAPGKGLEWVAGISYDGSNEHLDSVKGRFTISRDNSKNTLYLQMSSLRPEDTAVYYCARCPFWNYGHCYLDNWGQGTLVTVSS VL: EIVLTQSPATLSLSPGERATLSCRASQSVSSYLAWYQQKPGQAPRLLIFDASNRATGIPARFSGSGSGTDFTLTISSLEPEDFAVYYCQQRNKWPGTFGQGTKVEIK | < 20 nM
ABU-362 (antibody, V domains shown) VH: EVQLVESGGGLVQPGGSLRLSCAASGFTVSRNYMSWVRQAPGKGLEWVSVIYSGGTTHYADSVKGRFTISRHNSKNTLYLQMNSLRAEDTAVYYCARDLVVYGMDVWGQGTTVTVSS VL: DIQLTQSPSFLSASVGDRVTITCRASQGISSYLAWYQQKPGKAPKLLIYAASTLQSGVPSSFSGSGSGTEFTLTISSLQPEDFATYYCQQLNSYPLTFGGGTKVEIK | < 20 nM

*Q* Complete the entry with Kd for ABU-358 (antibody, V domains shown) VH: EVQLVESGGGLIQPGGSLRLSCAASGLTVSSNYMNWVRQAPGKGLEWVSVIYSGGSTYYADSVKGRFTISRDNSKNMVYLQMNSLRAEDTAVYYCARDLVVYGMDVWGQGTTVIVSS VL: DIQLTQSPSSLSASVGDRVTITCRASQGISSYLAWYQQKPGKAPKLLIYAASTLQSGVPSRFSGSGSGTDFTLTISSLQPEDVATYYCQQLNSNPPITFGPGTKVDIK
*A* < 10 nM

*Q* Answer with the recorded Kd for the binder listed here: ABU-328 (antibody, V domains shown) VH: EVQLVESGGGLVQPGGSLRLSCAASGFTVSSNYMSWVRQAPGKGLEWVSVIYSGGSTYYADSVKGRFTISRDNSKNTLYLQMNSLRAEDTAVYYCARLSGTGYGGDGGWFDPWGQGTLVTVSS VL: QSALTQPASVSGSPGQSITISCTGTSSDVGSYNLVSWYQQHPGKAPKLMIYEVSKRPSGVSNRFSGSKSGNTASLTISGLQAEDEADYYCCSYAGSSLWVFGGGTKLTVL
*A* < 10 nM

*Q* Return Kd (reported value) for this binder: ABU-351 (antibody, V domains shown) VH: EVQLVESGGGLVQPGGSLRLSCAASGFTVSRNYMSWVRQAPGKGLEWVSVIYSGGTTHYADSVKGRFTISRHNSKNTLYLQMNSLRAEDTAVYYCARDLVVYGMDVWGQGTTVTVSS VL: DIQLTQSPSFLSASVGDRVTITCRASQGISSYLAWYQQKPGKAPKLLIYAASTLQSGVPSSFSGSGSGTEFTLTISSLQPEDFATYYCQQLNSYPLTFGGGTKVEIK
*A* < 10 nM

*Q* Please report Kd for the following binder: ABU-352 (antibody, V domains shown) VH: EVQLVESGGGLIQPGGSLRLSCAASGLTVSSNYMTWVRQAPGKGLEWVSVIYSGGSTFYADSVKGRFTISRHNSKNTLYLQMNSLRAEDTAVYYCARDAMSYGMDVWGQGTTVTVSS VL: DIQMTQSPSSLSASVGDRVTITCRASQSISNFLNWYQQKPGKAPKLLIYAASSLQSGVPSRFSGSGSGTGFTLTISSLQPEDFATYYCQQSYSTPPDTFGQGTRLEIK
*A* < 10 nM

*Q* For the binder ABU-394 (antibody, V domains shown) VH: EVQLVESGGGLIQPGGSLRLSCAASGFTVSSNYMSWVRQAPGKGLEWVSVIYSGGSTYYADSVKGRFTISRDNSKNTLYLQMNSLRAEDTAVYYCARSYGDYYFDYWGQGTLVTVSS VL: DIQLTQSPSSLSASVGDRVTITCRASQGISSYLAWYQQKPGKAPKLLIYAASTLQSGVPSRFSGSGSGTDFTLTISSLQPEDFATYYCQQLNSFGPGTKVDIK , give its measured Kd value.
*A* < 20 nM

*Q* // fetch Kd given entry ABU-343 (antibody, V domains shown) VH: QVQLVQSGAEVKKPGASVKVSCKASGYTFTNYYMHWMRQAPGQGLEWMGIINPSGGSTSYAHQFQGRVTMTRDTSTSTVYMEMSSLRSEDTAVYFCVVGIGYCSSPSCPPLRWFDYWGQGTLVTVSS VL: AIQLTQSPSSLSASVGDRVTITCRASQGISSALAWYQQKPGKAPKVLIYDASGLQSGVPSRFSGGGSGTDFTLTISSLQPEDFATYYCQQFNDYPLTFGGGTKVEIK
*A* < 20 nM

*Q* Please list Kd recorded for the binder ABU-210 (antibody, V domains shown) VH: EVQLVESGGGLVQPGRSLRLSCAASGFTFDDYAMHWVRQAPGKGLEWVSGISWNSGTIGYEDSVKGRFIISRDNAKNSLYLQMNSLRAEDTALYYCAKEPLFGETYGMDVWGQGTTVTVSS VL: QSALTQPASVSGSPGQSITISCTGTSSDVGGYNYVSWYQHHPGKAPKLMIYEVSNRPSGVSNRFSGSKSANTASLTISGLQTEDEADYYCSSYTSISTVLFGGGTKLTVL
*A* < 10 nM
